Test system: CNR1 (cannabinoid receptor 1) (Homo sapiens, UniProt P21554)
Construct: Tango fusion module; by own knowledge of the PRESTO-Tango design: V2 tail, TEV cleavage site, tTA; (C); own knowledge of the PRESTO-Tango design; (N)
Sequence (P21554 whole entry, the tested form may be a part): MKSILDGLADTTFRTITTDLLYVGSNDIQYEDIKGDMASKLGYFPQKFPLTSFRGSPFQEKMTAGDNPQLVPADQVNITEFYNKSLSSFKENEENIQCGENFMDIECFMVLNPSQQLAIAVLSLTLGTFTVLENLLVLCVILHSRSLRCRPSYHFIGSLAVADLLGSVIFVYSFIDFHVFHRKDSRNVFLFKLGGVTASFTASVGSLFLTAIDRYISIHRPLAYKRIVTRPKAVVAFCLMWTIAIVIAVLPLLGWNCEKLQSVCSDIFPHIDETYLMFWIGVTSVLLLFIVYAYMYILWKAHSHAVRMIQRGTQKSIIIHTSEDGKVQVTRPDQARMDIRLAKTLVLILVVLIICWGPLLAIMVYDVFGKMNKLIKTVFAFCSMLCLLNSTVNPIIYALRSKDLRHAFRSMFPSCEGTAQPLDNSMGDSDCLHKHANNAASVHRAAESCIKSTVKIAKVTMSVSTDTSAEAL
Procedure details: Presto-Tango β-arrestin recruitment assay, CNR1
Test parameters: CNR1-transfected HTLA cells, luminescence, 1 μM AUDA; read-out: EC50 CNR1 activation
Description: FIG. 5A and FIG. 5B show dose-response curves for cannabinoid receptor 1 (CNR1) and cannabinoid receptor 2 (CNR2), respectively. The dose response curves were generated by monitoring the relative luminescence of cannabinoid receptor 1 (CNR1) and cannabinoid receptor 2 (CNR2) of PRESTO-Tango gene-transfected HTLA cells for 17,18-EEQ-EA, EPEA, and CP 55940. Values shown are the mean±SEM of experiments performed multiple times (n=3-7) *P<0.05, **P<0.01, and ***P<0.001. […]
Assay metric: EC50 (nM)

compound="CCC1OC1C/C=C\\C/C=C\\C/C=C\\C/C=C\\CCCC(=O)NCCO (stereo not shown) [17,18-EEQ-EA]" assay_metric=EC50 reported_result=18.5
